experiment: yeast display, Sf9 membrane polyspecificity reagent, FACS + sequencing; frameworks hold sequencing errors

- residues: "QVQLVESGGGLVQAGGSLRLSCAASGFTFSFYAMGWYIQAPGKERELVAVISKSGGRTYYADSVKGRFTISRDNAKNTVYLQMNSLKPEDTAVYYCAAKRTSTRIYTFEYWGQGTQVTVSS"
  polyreactivity (PSR sort gate): "high polyreactivity"
- residues: "QVQLVESGGGLVQAGGSLRLSCAASGRIFDLNAMGWYRQAPGKERELVATITRSGVSTYYADSVKGRFTISRDNAKNTVYLQLYSLKPEDTAVYYCAKDRYGWGYDYWGQGTQVTVSS"
  polyreactivity (PSR sort gate): "low polyreactivity"
- residues: "QVQLVESGGGLVQAGGSLRLSCAASGGTFRNYAMGWYRQAPGKERELVAAITTGTITNYADSVKGRFTISRDNAKNTVYLQLNSLKPEDTAVYYCNAGAFYSDPYVYWGQGNQVTVSS"
  polyreactivity (PSR sort gate): "low polyreactivity"
- residues: "QVQLVESGGGLVQAGGSLRLSCAASGIIIRYYAMGWYRQAPGKERELVAAISTSGGRTYYADSVKGRFTISRDNAKNPVYLQMNSLKPEDTAVYYCAARPGSWYPSVPSYNYWGQGTQVTVSW"
  polyreactivity (PSR sort gate): "low polyreactivity"
- residues: "QVQLVESGGGLVQAGGSPRLSCAASGFTFGHYAMGWYREAPGKERELVAAISIDGGRTYYADSVKGRFTISRDNAKNSVYLQMNSLKPEDTAVYYCAVPRWFYYYWGQGTQVTVSS"
  polyreactivity (PSR sort gate): "high polyreactivity"

====

assay: yeast display, Sf9 membrane polyspecificity reagent, FACS + sequencing; frameworks hold sequencing errors

- residues: "QVQLVDSGGGLVQAGGSLRLICAASGRNLYAYSMGWYRQAPWQQRELVGAITSGASTYYADSVKGRFTISRDNAKTNVYLQMKRLKPEDTAVYYCAKSVRYYKPGYDYWGQGTQVTVSS"
  polyreactivity (PSR sort gate): "low polyreactivity"
- residues: "QVQLVESGGGLVQAGGSLRLSCAASGSIFGGYAMGWYRQAPGKERELVAAISSGGSTYYADSVKGRFTISRDNAKNTVYLQMNSLKPEDTAVYYCATSTYADRRNSYYYTRPRFGYWGQGTQVTVSS"
  polyreactivity (PSR sort gate): "high polyreactivity"
- residues: "QFQLVESVGGLVQAGGSLRLSFAASGFNFDYNAMGWYRQAPGKERELVAAISNTGDSTYYADSVKGRFTISRDNAKNTVYLQMNSLQPEDTAVYYCAADSLFDDYWEYDYWGQGTQVTVSS"
  polyreactivity (PSR sort gate): "low polyreactivity"
- residues: "QVQLVESGGGLVQAGGSLRLSCAASGLIFPWTYAMGWYRQAPGKEREFVAAITSSDGSTYYADSVKGRFTISRDNAKNTVYLQMNSLKPEDTAVYYCAAVGWDYDWDYYYWGQGTQVTVSS"
  polyreactivity (PSR sort gate): "high polyreactivity"
- residues: "QVQLVESGGGLVQAGGSLRLSCAASGSTFYRNAMGWYRPAPGKERELVAAISQRGGRTYYADSVKGRFTISRDNAKNTVYLQMNSLKPEDTAVYYCNKFRGINHLYDMNYWGQGTQVTVSS"
  polyreactivity (PSR sort gate): "high polyreactivity"
- residues: "QVQLVESGGGLVQAGGSLRLSCAASGRIFWGNAMGWYRQAPGKERELVAAITSGDGTNYADSVKGRFTISRDNAKNTVYLQMNSLKPEDTAVYYCSYYYWGQGTQVTVSS"
  polyreactivity (PSR sort gate): "low polyreactivity"
- residues: "QVQLVESGGGLVQAGGILRLSCAASGITFKPYGMGWYRQAHGKESELVADITSGGITYYADSVKGRFTISRDNAKNTVYLQMNSLIAEDTAVYFCATGDLFVYYWGYVVRLYDFWGQGTQVTVSS"
  polyreactivity (PSR sort gate): "low polyreactivity"
- residues: "QVQLVESGGGLDQAGGSLRLSCAASGRTFKYYAMGWYRQAPGKERELVAAITRSGSTYYADSVKGRFTISRDNAKNTVYLQMNSLKPEDTAVYYGAADVTLYYRGRRYYYWGQGTQVTVSS"
  polyreactivity (PSR sort gate): "high polyreactivity"
- residues: "QVQIVESGGGLVQAGGSLPLSSAPSGSIFAPYAMGWYRQAPGKERELVAAINISGGTYYADSVKGRFTISRDNAKNTLYLQMNSLKPEDTAVYYCAARYLYGYYGFDYWGQGTQVTVSS"
  polyreactivity (PSR sort gate): "high polyreactivity"
- residues: "QVQLVESGGGLDQAGGSLRLSCAASGITFDFNDLGWYRQAPGKERELVACINGNSDSTYYADSVKGRFTISRDIAKNTVFLQMNSLKPEDTAVYYCNVPTVRYRYDSWGQGTQVTVSS"
  polyreactivity (PSR sort gate): "low polyreactivity"
- residues: "QVQLVESGGGLVQAGGSLRLTCAASGRTFNIYAMGWYRQAPGKERELVAAITSGGSTNYADSVKGRFTISRDNAKNTVYLQMNSLKPEDTAVYYCNARYFRGYDYWGQGTQVTVSS"
  polyreactivity (PSR sort gate): "high polyreactivity"
- residues: "QVQLVESGGGLVQAGGSLRLSCAASGGIFGLYTMGWYRQAPGKERELVAAISKTGGSTYYADSVKGRFTISRDNAKNTVYLQMNSLNPEDTAVYYCAADGPYDDYEYWGQGTQVTVSS"
  polyreactivity (PSR sort gate): "high polyreactivity"
- residues: "QVQLVESGGGLVQAGGSLRLSCAASGFTFSYYAMGWYRQAPGKERELVAAITSSGARTYYADSVKGRFTISRDNAKNTVYFQMNSLKPEDTAVYYCAAEVFRTRTWEYYYWGQGTQVTVSS"
  polyreactivity (PSR sort gate): "high polyreactivity"
- residues: "QVQLVESGGGLVQAGGSLRLSCAASGRTLSRNAMGWSRQAPGKEREFVAAISSRGTSTYYADSVKGRFTISRDNAKNTVYLQMNSLKPEDTAVYYCATTLGGNYGYDYWGQGTQVTVSS"
  polyreactivity (PSR sort gate): "high polyreactivity"
- residues: "QVQRVESGGGLVQAGGSLRFSCAASGSTFSYYAMGWYSQAPGKERELVAVISRGGSTNYADSVKGRFTISRDNAKNTVYLQMNSLKPEDTAVYYCAAYVLPWRGRGQTEYGYSGQGTQVTVSS"
  polyreactivity (PSR sort gate): "low polyreactivity"
- residues: "QVQLVESGGGLVQAGGSLRLSCAASGFIFVKYAMGWYRQAPGKEREFVAAISQSGGNTYYADSVKGRFTISRDNAKNTVYLQMNSLKPEDTAVYYCNAKSYTRRSYYTPTVPGDYWGQGTQVTVSS"
  polyreactivity (PSR sort gate): "low polyreactivity"
- residues: "QVQLVESGGGLVQAGGSLRLSCAASGSTFDGNAMGWNRQAPGKERELVAAITRAGRTSYADSVKGRFTISRDNAKNTVYLQMNCLKPEDTAVFYCAKGGYDYWGQGTQVTVSS"
  polyreactivity (PSR sort gate): "low polyreactivity"
- residues: "QVQLVESGGGLVQAGGSLRLSCAASGITFRKYAMGWYRQAPGKERELVAGIRYSGSSTYYADSVKGRFTISRDNAKNTVYLQMNSLTPEDTAVYYCAVYGTTRYATTYDYWGQGTQVTVSS"
  polyreactivity (PSR sort gate): "high polyreactivity"
- residues: "QVQLVESGGGLVQAGGSHRLSCAASGRTFSPNAMGWYRQAPGKERELVAAISYRSYRTYYADSVKGRFTISRDKAKNTVYLQMNSLKPEDTAVYYCNADRTRGFQRYDYWGQGTQVTVSS"
  polyreactivity (PSR sort gate): "high polyreactivity"
- residues: "QVQLVESGGGLVQAGGSLRLSCAASGRTFNYYTMGWNRQAPGKEREFVAAITISGARTYYADSVKGRFTISRDNAKNTVYLQMNSLKPEDTAVYYCAARRRYRSRVTPVGYNYWGQGTQVTVSS"
  polyreactivity (PSR sort gate): "high polyreactivity"
- residues: "QVQHVESCGGLVQAGGSLRLSCAASGFTFASNVMGWYRQAPGKERDLVAAITSGASTNYADSVKGRFTISRDNAKNTFYLQMNSLKPEDTAVYYCAAGRQWYVFYEFDYWGQGTQVTVSS"
  polyreactivity (PSR sort gate): "high polyreactivity"

====

assay: yeast display, Sf9 membrane polyspecificity reagent, FACS + sequencing; frameworks hold sequencing errors

- residues: "QVQLVESGGGLVQAGGSLRLSCAASGRIFGNNAMGLYRQAPGKERELVAAIRRGGSTYYADSVKGRFTISRDNAKNTVYLQMNSLKPEDTAVYYCAADSSRKHFYWGQGTQVTVSS"
  polyreactivity (PSR sort gate): "high polyreactivity"
- residues: "QDQLVESGGGLVQAGGSLRLSCAASGRTFTRYTMGRYRPAPVKERELVAAISSGGSTTYADSVKGRFTISRDNAKNTVYLQMNSLKPEDTAVYYCAAGLVYRGYRRDYWGQGTQVTVSS"
  polyreactivity (PSR sort gate): "low polyreactivity"
- residues: "QVQLVESGGGLVQAGGSLRLSCAASGGIFSPNAMGWYRQAPGKERELVAAISSNGGSTNYADSVKGRFTISRDNAKNTVYLQMNSLKPEDTAVYYCAGLQKRRSYWRPFYWGQGTQVTVSS"
  polyreactivity (PSR sort gate): "low polyreactivity"
- residues: "QVQLVESGGGLVQAGGSLRLSCAASGITFVRNAMGWYRQAPGKERELVAAISSGGSTYYADSVKGRFTISRDNAKNTVYLQINSLKPEDTAVYYCNAQIYGRQYRYRWHYYWGQGTQVTVSS"
  polyreactivity (PSR sort gate): "high polyreactivity"
- residues: "QVQLVESGGGLVQAGGSLRIICAASGRTLSGYAMGWYRQAPGKERELVAAISSDGRTYYADSVKGRFTISRDNAKNTVYLQMNSLKPEDTAVYYCAARANPYVLKYYYWGQGTQVTVSS"
  polyreactivity (PSR sort gate): "high polyreactivity"
- residues: "QVQIVESGGGLVQAGGSLRLSCAASGSTFYPNAMGWYRQAPGKERELVAAISRGTRTKYADSVKGRFTISRDNAKNTVYLQINSLKPEDTAVYYCAADTGKGLDWGQGTHVTVSS"
  polyreactivity (PSR sort gate): "high polyreactivity"
- residues: "QVQLVESGGGLVQAGGSLRLSCAASGFTLRLYTMGWYIQAPGKERELVAAISRSGGSTYYADSVKGRFTISRDNAKNTVYLQMNSLKPEDPAVYYCNAKNGRPGFNMYHWGQGTQVTVSS"
  polyreactivity (PSR sort gate): "high polyreactivity"
- residues: "QVQLVESGGGLFQAGGSLRLSCAASGGIFPFYAMGWYRQAPGKERELVAAISSGGSTNYADSVKGRFTISRDNAKNTVYLQMNSLKPEDTAVYYWNTVFQLGEGGSYGYDYWGQGTQVTVSS"
  polyreactivity (PSR sort gate): "low polyreactivity"
- residues: "QVQLVESGGGLVQAGGSLRLSCAASGRIFYPYSMGWYRQAPGKERELVATITYIGGSTYADSVKGRFTISRDNAKNTVYLQMNSLKPEDTAVYYCAASETYFRFPFGIYYYWGQGTQVTVSS"
  polyreactivity (PSR sort gate): "low polyreactivity"
- residues: "QVQLVESGGGLVQAGGSLRLSCAASGFTFYVYARGWYRQAPGKERQLVAAISRSGGSTYYADSVKGSFTISRDNAKNTVYLQMQSLKPEDTAVYYCAVVQRYWYPGIVPYDYWGQGSQVTVSS"
  polyreactivity (PSR sort gate): "high polyreactivity"
- residues: "QVQLVESGGGLVQAGGSLRLSCAASGSIFDYNAMGWYTQAPGKERELVAAITSGGSTNYADSVKGRFTISRDNAKNTVYLQMNSLKPEDTAVYYCAADHDYYPSNLDYWGQGTQVTVSS"
  polyreactivity (PSR sort gate): "low polyreactivity"
